Form field: IC50 (one value per entry).
Assay target: Endothelin-1 receptor (Homo sapiens)
Sequence (P25101 whole entry): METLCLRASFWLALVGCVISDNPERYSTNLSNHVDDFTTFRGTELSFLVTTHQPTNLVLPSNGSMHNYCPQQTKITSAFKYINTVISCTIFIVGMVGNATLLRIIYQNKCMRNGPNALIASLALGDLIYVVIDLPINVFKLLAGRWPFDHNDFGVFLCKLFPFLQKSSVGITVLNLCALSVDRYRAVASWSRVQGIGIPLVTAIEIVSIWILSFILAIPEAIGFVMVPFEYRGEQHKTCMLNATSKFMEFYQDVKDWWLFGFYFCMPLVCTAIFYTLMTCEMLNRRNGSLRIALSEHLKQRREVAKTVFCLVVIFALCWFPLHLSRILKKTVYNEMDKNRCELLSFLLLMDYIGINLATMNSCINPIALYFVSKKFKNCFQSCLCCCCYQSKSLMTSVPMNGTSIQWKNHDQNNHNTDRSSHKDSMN
Protocol details: Displacement of 125I-labeled endothelin 1 from human ETA receptor expressed in CHO-K1 cells incubated for 4 hrs by gamma counting analysis
Please respond with the number in µM and leave the unit unwritten.

Examples with answers:
[
  {
    "Molecule": "CCCc1nc2c(C)cc(C(=O)NCc3ccccc3)cc2n1Cc1ccc(-c2ccccc2S(=O)(=O)Nc2onc(C)c2C)cc1",
    "Assay target": "Endothelin-1 receptor (Homo sapiens)",
    "IC50 [µM]": 0.01
  },
  {
    "Molecule": "CCCc1nc2c(C)cc(C(=O)NCCc3ccc(F)cc3)cc2n1Cc1ccc(-c2ccccc2S(=O)(=O)Nc2onc(C)c2C)cc1",
    "Assay target": "Endothelin-1 receptor (Homo sapiens)",
    "IC50 [µM]": 56
  },
  {
    "Molecule": "CCCc1nc2c(C)cc(C(=O)NCc3ccc(OC)cc3)cc2n1Cc1ccc(-c2ccccc2S(=O)(=O)Nc2onc(C)c2C)cc1",
    "Assay target": "Endothelin-1 receptor (Homo sapiens)",
    "IC50 [µM]": 0.388
  },
  {
    "Molecule": "CCCc1nc2c(C)cc(C(=O)NCCc3ccc(OC)c(OC)c3)cc2n1Cc1ccc(-c2ccccc2S(=O)(=O)Nc2onc(C)c2C)cc1",
    "Assay target": "Endothelin-1 receptor (Homo sapiens)",
    "IC50 [µM]": 55
  },
  {
    "Molecule": "CCCc1cc(Cn2c(CC)nc3c(C)cc(C)nc32)ccc1OC(C(=O)NS(=O)(=O)c1ccc(C(C)C)cc1)c1ccc2c(c1)OCO2 (stereo not given)",
    "Assay target": "Endothelin-1 receptor (Homo sapiens)",
    "IC50 [µM]": 0.024
  }
]

Observed IC50, Endothelin-1 receptor (Homo sapiens), CCCc1nc2c(C)cc(C(=O)NCCc3ccc(OC)cc3)cc2n1Cc1ccc(-c2ccccc2S(=O)(=O)Nc2onc(C)c2C)cc1 : 200

Observed IC50, Endothelin-1 receptor (Homo sapiens), CCCc1nc2c(C)cc(C(=O)NCCN3CCCC3)cc2n1Cc1ccc(-c2ccccc2S(=O)(=O)Nc2onc(C)c2C)cc1 : 5.5

Observed IC50, Endothelin-1 receptor (Homo sapiens), CCCc1nc2c(n1Cc1ccc(-c3ccccc3S(=O)(=O)Nc3onc(C)c3C)c(C#N)c1)C(=O)CCCC2 : 0.015
